# credit: patent US9029389B2

- TARGET ENTITY: Human 5-lipoxygenase (Homo sapiens)
- Construct: purchased Cayman 60402; host or cells: insect cells
- Sequence (P09917 whole entry): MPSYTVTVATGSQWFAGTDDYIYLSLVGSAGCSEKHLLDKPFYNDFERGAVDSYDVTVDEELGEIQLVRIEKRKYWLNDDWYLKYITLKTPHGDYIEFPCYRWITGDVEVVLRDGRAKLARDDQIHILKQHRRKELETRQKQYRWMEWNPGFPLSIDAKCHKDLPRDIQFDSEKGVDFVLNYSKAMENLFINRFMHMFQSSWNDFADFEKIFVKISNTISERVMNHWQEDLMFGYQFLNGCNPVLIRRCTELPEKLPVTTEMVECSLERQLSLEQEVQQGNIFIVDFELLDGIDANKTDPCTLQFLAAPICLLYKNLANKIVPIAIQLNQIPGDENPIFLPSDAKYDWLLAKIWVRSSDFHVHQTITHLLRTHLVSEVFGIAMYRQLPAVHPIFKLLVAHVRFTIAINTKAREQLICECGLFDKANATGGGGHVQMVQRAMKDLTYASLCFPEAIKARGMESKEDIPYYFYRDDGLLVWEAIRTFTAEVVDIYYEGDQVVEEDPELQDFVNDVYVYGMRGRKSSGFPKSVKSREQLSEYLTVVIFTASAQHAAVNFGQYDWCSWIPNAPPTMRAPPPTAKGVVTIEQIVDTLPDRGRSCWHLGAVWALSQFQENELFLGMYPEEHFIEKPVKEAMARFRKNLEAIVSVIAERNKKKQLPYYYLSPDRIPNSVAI
- PROTOCOL TEXT: Activity of compounds against 5-LO enzyme (LTB4 measurement and/or fluorescence method)
- Assay type: biochemical
- ASSAY CONTEXT: 5-LO, single concentration of 10 uM in duplicate

| MOLECULE | inhibition at 10 µM |
| --- | --- |
| Cc1nc2c(Cl)cccn2c1C(=O)NCc1ccccc1 [compound 15] | < 40% |
| CCc1nc2cc(Cl)ccn2c1C(=O)NCc1ccc(N2CCC(C(F)(F)F)CC2)cc1 [compound 234] | < 40% |
| CCc1nc2ccc(Cl)cn2c1CNCCc1ccccn1 [compound 342] | < 40% |
| CCc1nc2ccc(Br)cn2c1C(=O)NCc1ccc(Oc2ccc(OC(F)(F)F)cc2)cc1 [compound 226] | < 40% |
| CCc1nc2cc(Cl)ccn2c1C(=O)NCc1ccc(-n2cc3c(c2)CCCC3)cc1 [compound 217] | > 69% |
| CCc1nc2ccc(C)cn2c1C(=O)NCc1ccc(N2CCOCC2)cc1 [compound 315] | < 40% |
| CCc1nc2ccc(Cl)cn2c1CN1CCC(CCc2ccc(F)cc2)CC1 [compound 349] | 40 to 69% |
| CCc1nc2ccc(C)cn2c1C(=O)NCc1ccc(N2CCN(c3ccc(F)cc3)CC2)cc1 [compound 231] | > 69% |
| COc1ccc(CNC(=O)c2c(C)nc3ccccn23)cc1 [compound 7] | < 40% |
| CCc1nc2ccccn2c1C(=O)NCc1ccc(N2CCN(c3ccc(F)cc3)CC2)cc1 [compound 227] | > 69% |
| CCc1nc2ccc(Cl)cn2c1C(=O)NCc1ccc(N2CCC(OCc3ccccc3)CC2)cc1 [compound 317] | < 40% |
| CCc1nc2ccc(Cl)cn2c1C(=O)NCc1ccc(-c2ccc(Cl)cc2C(F)(F)F)cc1 [compound 100] | > 69% |
| CCc1nc2cnccn2c1C(=O)NCc1ccc(-c2ccc(Cl)cc2)cc1 [compound 71] | < 40% |
| CCc1nc2cc(C)ccn2c1C(=O)NCc1ccc(OC(F)(F)F)cc1 [compound 280] | < 40% |
| CCc1nc2ccccn2c1C(=O)NCc1ccc(OCc2ccc(OC(F)(F)F)cc2)cc1 [compound 207] | > 69% |
| CCc1nc2cc(Cl)ccn2c1C(=O)NCc1ccc(C(F)(F)F)cc1 [compound 155] | < 40% |
| CCc1nc2cc(Cl)ccn2c1C(=O)NCc1ccc(-c2ccc(C(C)(C)C)cc2)cc1 [compound 114] | 40 to 69% |
| Cc1nc2cc(Cl)ccn2c1C(=O)NCc1ccccc1 [compound 16] | < 40% |
| CCc1nc2ccc(Cl)cn2c1C(=O)NCC1CCN(Cc2ccc(F)cc2)CC1 [compound 139] | < 40% |
| CCc1nc2ccc(Cl)cn2c1C(=O)NCc1cccc(N2CCN(c3ccc(OC(F)(F)F)cc3)CC2)c1 [compound 356] | 40 to 69% |
| CCc1nc2cc(OC)ccn2c1C(=O)NCc1ccc(OC(F)(F)F)cc1 [compound 118] | < 40% |
| CCc1nc2ccc(Br)cn2c1C(=O)NCc1ccc(OC(F)(F)F)cc1 [compound 176] | 40 to 69% |
| CCc1nc2ccc(Cl)cn2c1C(=O)NCc1ccc(N2CCC(COc3ccc(OC(F)(F)F)cc3)CC2)cc1 [compound 213] | < 40% |
| CCc1nc2cc(Cl)ccn2c1C(=O)NCc1ccc(N2CCC(Oc3ccc(Cl)cc3)CC2)cc1 [compound 167] | 40 to 69% |
| CCc1nc2ccc(Cl)cn2c1C(=O)NCc1ccc(N2CCC(C(N)=O)CC2)cc1 [compound 291] | < 40% |
| CCc1nc2ccc(Cl)cn2c1C(=O)NCc1ccc2ccn(C)c2c1 [compound 68] | < 40% |
| CCc1nc2ccc(Cl)cn2c1C(=O)NCc1ccc(-c2ccccc2C(F)(F)F)cc1 [compound 98] | 40 to 69% |
| CCc1nc2cc(Cl)ccn2c1C(=O)NCc1ccc(-c2cccc(C#N)c2)cc1 [compound 101] | 40 to 69% |
| CCCC(=O)NCc1ccc(N2CCN(c3ccc(CNC(=O)c4c(CC)nc5cc(Cl)ccn45)cc3)CC2)cc1 [compound 125] | 40 to 69% |
| CCc1nc2ccc(Cl)cn2c1C(=O)NCc1ccc(N2CCCCCC2)cc1 [compound 192] | 40 to 69% |
| CCc1nc2cc(Cl)ccn2c1C(=O)NCc1ccc(N2CCC(C)CC2)cc1 [compound 195] | 40 to 69% |
| CCc1nc2ccc(Cl)cn2c1C(=O)NCc1ccc(N2CCN(C(=O)c3ccc(F)cc3)CC2)cc1 [compound 319] | < 40% |
| CCc1nc2ccc(F)cn2c1C(=O)NCc1ccc(N2CCN(c3ccc(F)cc3)CC2)cc1 [compound 228] | > 69% |
| Cc1nc2ccccn2c1C(=O)O [compound 2] | < 40% |
